Study Target: Human CD3eg linker (human)
Sequence (chain, as listed by the source limits assumed): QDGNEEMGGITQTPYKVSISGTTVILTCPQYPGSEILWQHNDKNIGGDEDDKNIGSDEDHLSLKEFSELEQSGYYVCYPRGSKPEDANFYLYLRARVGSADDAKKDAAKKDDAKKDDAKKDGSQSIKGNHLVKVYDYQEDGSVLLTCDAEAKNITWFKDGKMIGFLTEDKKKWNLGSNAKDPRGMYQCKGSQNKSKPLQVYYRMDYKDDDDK
Protocol Text: SPR; fold vs parent H183/L072
Quantity Kind: fold change of affinity (fold)
Expressed in fold, but write only the number.

H183/L072 VL P95L (antibody, name in Kabat numbering, V domains shown) VH: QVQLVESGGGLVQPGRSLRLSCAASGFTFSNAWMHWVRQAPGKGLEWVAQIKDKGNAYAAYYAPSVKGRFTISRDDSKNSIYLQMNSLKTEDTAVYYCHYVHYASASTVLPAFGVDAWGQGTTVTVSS VL: DIVMTQSPLSLPVTPGEPASISCQASQELVHMNRNTYLHWYQQKPGQAPRLLIYKVSNRFPGVPDRFSGSGSGTDFTLKISRVEAEDVGVYYCAQGTSVLFTFGQGTKLEIK
0
H183/L072 VL F96I (antibody, name in Kabat numbering, V domains shown) VH: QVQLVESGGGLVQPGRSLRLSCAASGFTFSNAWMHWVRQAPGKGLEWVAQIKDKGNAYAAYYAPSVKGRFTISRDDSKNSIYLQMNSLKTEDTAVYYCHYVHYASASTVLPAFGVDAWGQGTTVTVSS VL: DIVMTQSPLSLPVTPGEPASISCQASQELVHMNRNTYLHWYQQKPGQAPRLLIYKVSNRFPGVPDRFSGSGSGTDFTLKISRVEAEDVGVYYCAQGTSVPITFGQGTKLEIK
0

Report fold change of affinity for H183/L072 VL P95V (antibody, name in Kabat numbering, V domains shown) VH: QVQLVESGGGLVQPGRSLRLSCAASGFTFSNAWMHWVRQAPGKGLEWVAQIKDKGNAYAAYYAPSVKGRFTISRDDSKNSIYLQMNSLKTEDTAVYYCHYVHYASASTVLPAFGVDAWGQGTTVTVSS VL: DIVMTQSPLSLPVTPGEPASISCQASQELVHMNRNTYLHWYQQKPGQAPRLLIYKVSNRFPGVPDRFSGSGSGTDFTLKISRVEAEDVGVYYCAQGTSVVFTFGQGTKLEIK please.
0

This collection of values is drawn from patent US20210388087A1.
